Give measured self-aminoacylation for each item. Keep answers brief.
- Test system: biotinyl-Val-oxazolone
- Procedure summary: self-aminoacylation, catalytic enhancement (BVO) (fold over background); higher = more active; k-Seq, kA / k0A0; sequences stand for … in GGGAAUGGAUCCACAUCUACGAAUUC…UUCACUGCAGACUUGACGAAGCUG
This sample holds only a part of the variants without activity.
Answers are plain numbers.

**Q:** // query self-aminoacylation value for entry AUUCACCUAGGACAUCGAGUG [Fam2.2 aminoacylation ribozyme variant]
**A:** 1.12

**Q:** // query self-aminoacylation value for entry AUUACCUUGGUCAACGAGUGA [Fam2.1 aminoacylation ribozyme variant]
**A:** 3.54

**Q:** // query self-aminoacylation value for entry AUUACCCUGGUCAUGGAGUUA [Fam2.1 aminoacylation ribozyme variant]
**A:** 1.13

Could you tell me self-aminoacylation for each of these sequences? They are listed below.
1. CUACUUGAUACAAUCGGUCUG [Fam1A.1 aminoacylation ribozyme variant]
2. CUAAUUCAUACAAUCGGUCUG [Fam1A.1 aminoacylation ribozyme variant]
3. AAGUUUCCUAAUACUCGCAAG [Fam3.1 aminoacylation ribozyme variant]
4. CUACUUCAAACCAUCGGUCAG [Fam1A.1 aminoacylation ribozyme variant]

**A:**
0.776
0.77
0.889
0.771

**Q:** // query self-aminoacylation value for entry CUACUUCGAACAAUCGGGCUG [Fam1A.1 aminoacylation ribozyme variant]
**A:** 1.54
